# Target System: ATP-binding cassette sub-family B member 6 (Homo sapiens) (UniProt Q9NP58)
# Sequence (Q9NP58 whole entry, looked up): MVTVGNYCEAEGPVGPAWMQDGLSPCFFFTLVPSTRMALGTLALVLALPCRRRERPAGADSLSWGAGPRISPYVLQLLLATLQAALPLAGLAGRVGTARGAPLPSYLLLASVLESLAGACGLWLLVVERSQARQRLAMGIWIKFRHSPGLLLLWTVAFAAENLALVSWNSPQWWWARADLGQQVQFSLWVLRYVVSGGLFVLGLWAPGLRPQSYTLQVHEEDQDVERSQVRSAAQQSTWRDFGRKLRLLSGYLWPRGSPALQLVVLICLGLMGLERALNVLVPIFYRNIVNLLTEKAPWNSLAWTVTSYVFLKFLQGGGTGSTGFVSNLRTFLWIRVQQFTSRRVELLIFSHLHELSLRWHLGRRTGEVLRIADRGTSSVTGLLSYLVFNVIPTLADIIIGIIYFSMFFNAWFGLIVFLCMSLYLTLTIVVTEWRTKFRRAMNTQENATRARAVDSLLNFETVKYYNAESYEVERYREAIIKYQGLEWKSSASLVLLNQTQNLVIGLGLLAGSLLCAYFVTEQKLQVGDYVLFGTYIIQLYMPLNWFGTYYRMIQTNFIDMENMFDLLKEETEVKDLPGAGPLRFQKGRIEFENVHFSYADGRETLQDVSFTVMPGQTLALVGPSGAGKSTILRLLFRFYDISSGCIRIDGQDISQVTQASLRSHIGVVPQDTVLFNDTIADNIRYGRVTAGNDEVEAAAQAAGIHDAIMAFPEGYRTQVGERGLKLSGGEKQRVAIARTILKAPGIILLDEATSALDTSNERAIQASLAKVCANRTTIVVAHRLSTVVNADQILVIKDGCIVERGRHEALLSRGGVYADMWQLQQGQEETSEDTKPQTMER
# Run Description: blockers of ABCB6-driven porphyrin uptake – K562-ABCB6 cells, flow cytometry, validation set, pilot screen (AID 588550);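 also: 0% = DMSO wells and 100% = benzethonium chloride 70 µM positive control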
# Test Settings: K562-ABCB6 porphyrin accumulation, 1 h, at 10 µM, hits give high values
Observed Property: inhibition (%)
Report the figure in % without appending any unit label.

GET /values?readout=inhibition&system=ATP-binding cassette sub-family B member 6 (Homo sapiens) (UniProt Q9NP58)&item= CCN(CC)CCCNC(=O)C1c2ccccc2Oc2ccccc21
-2

GET /values?readout=inhibition&system=ATP-binding cassette sub-family B member 6 (Homo sapiens) (UniProt Q9NP58)&item= Cc1cccc(Nc2ccccc2C(=O)O)c1C
5

GET /values?readout=inhibition&system=ATP-binding cassette sub-family B member 6 (Homo sapiens) (UniProt Q9NP58)&item= CCOC(=O)N1CCN(Cc2nc(Cc3cccc(F)c3)no2)CC1
13

GET /values?readout=inhibition&system=ATP-binding cassette sub-family B member 6 (Homo sapiens) (UniProt Q9NP58)&item= O=C(NCCC(c1ccccc1)c1ccco1)c1cccs1 (configuration not stated)
11

GET /values?readout=inhibition&system=ATP-binding cassette sub-family B member 6 (Homo sapiens) (UniProt Q9NP58)&item= CC1(C#CC[N+]2(C)CCCCC2)CCC2C(O1)c1ccccc1OC2(C)C (configuration not stated)
-6

GET /values?readout=inhibition&system=ATP-binding cassette sub-family B member 6 (Homo sapiens) (UniProt Q9NP58)&item= O=C(CC1SC(=O)NC1=O)Nc1ccc(Cl)cc1 (configuration not stated)
-3

GET /values?readout=inhibition&system=ATP-binding cassette sub-family B member 6 (Homo sapiens) (UniProt Q9NP58)&item= C[C@H](NC(=O)C1(c2ccccc2)CCN(C(=O)[C@H]2CSCN2C(=O)OC(C)(C)C)CC1)C(=O)O
1

GET /values?readout=inhibition&system=ATP-binding cassette sub-family B member 6 (Homo sapiens) (UniProt Q9NP58)&item= CCOC(=O)C1=C(N)Oc2c(c(=O)[nH]c3ccccc23)C1c1ccccc1 (configuration not stated)
7

GET /values?readout=inhibition&system=ATP-binding cassette sub-family B member 6 (Homo sapiens) (UniProt Q9NP58)&item= C1COC(NC(C2CC2)C2CC2)=N1
6

GET /values?readout=inhibition&system=ATP-binding cassette sub-family B member 6 (Homo sapiens) (UniProt Q9NP58)&item= Cc1ccc(C(=O)NCCNC(=O)c2ccccc2)cc1
4

GET /values?readout=inhibition&system=ATP-binding cassette sub-family B member 6 (Homo sapiens) (UniProt Q9NP58)&item= OC(C#CCN1CCCC1)(c1ccccc1)c1cccnc1 (configuration not stated)
-14

GET /values?readout=inhibition&system=ATP-binding cassette sub-family B member 6 (Homo sapiens) (UniProt Q9NP58)&item= CC1(C)CC(C(CC(=O)O)c2ccccc2)CCO1 (configuration not stated)
2

The origin of these recorded values is PubChem BioAssay.
